Each entry below carries its reported IC50.
Target: Recombinant human BACE-1 (Homo sapiens, UniProt P56817)
Construct: purchased R&D Systems
Sequence (P56817 46-501): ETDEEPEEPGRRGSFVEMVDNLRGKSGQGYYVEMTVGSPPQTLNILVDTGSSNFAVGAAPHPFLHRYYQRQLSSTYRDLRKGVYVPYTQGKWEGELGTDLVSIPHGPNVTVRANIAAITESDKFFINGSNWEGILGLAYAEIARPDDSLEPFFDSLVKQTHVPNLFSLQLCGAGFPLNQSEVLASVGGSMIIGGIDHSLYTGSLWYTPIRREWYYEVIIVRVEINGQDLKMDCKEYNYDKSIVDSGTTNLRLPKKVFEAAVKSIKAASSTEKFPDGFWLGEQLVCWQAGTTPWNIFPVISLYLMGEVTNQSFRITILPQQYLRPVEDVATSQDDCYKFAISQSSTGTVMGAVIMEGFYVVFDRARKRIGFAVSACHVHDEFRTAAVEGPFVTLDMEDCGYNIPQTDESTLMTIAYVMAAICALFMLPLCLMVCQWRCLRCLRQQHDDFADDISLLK
Test: Assay of β-secretase-inhibiting activity
Assay type: biochemical
Conditions: Recombinant human BACE-1 7.4 nM, substrate peptide 18 nM, pH 5.0, 30° C., 3 hours; Table 139; read-out: IC50
Number in nM, nothing else.

[[record]]
molecule = "C[C@@]1(c2cc(NC(=O)CCc3ccc(O)c(O)c3)ccc2F)CCSC(N)=N1 [Compound 155]"
endpoint_value = 5960

[[record]]
molecule = "CC#CC(=O)Nc1cccc([C@]2(C)CCSC(N)=N2)c1 [Compound 65]"
endpoint_value = 720

[[record]]
molecule = "Cc1cc(SCC(=O)Nc2ccc(F)c([C@]3(C)CCSC(N)=N3)c2)nc(N)n1 [Compound 151]"
endpoint_value = 6770

[[record]]
molecule = "COCCOc1cnc(C(=O)Nc2cccc(C3(C)CCSC(N)=N3)c2)cn1 (stereo not drawn) [Compound 62]"
endpoint_value = 170

[[record]]
molecule = "CC#CCCOc1cnc(C(=O)Nc2cccc([C@]3(C)CCSC(N)=N3)c2)cn1 [Compound 106]"
endpoint_value = 120

[[record]]
molecule = "Cc1ccc(NC(=O)c2cnc(Cl)cn2)cc1C1(C)CCSC(N)=N1 (stereo not drawn) [Compound 141]"
endpoint_value = 120

[[record]]
molecule = "Cc1cc(C(=O)Nc2cccc([C@]3(C)CCSC(N)=N3)c2)c(C)o1 [Compound 3]"
endpoint_value = 80

[[record]]
molecule = "C[C@@]1(c2cccc(NC(=O)c3cnc(OCC4CCO4)cn3)c2)CCSC(N)=N1 (stereo partly drawn) [Compound 94]"
endpoint_value = 170


Lab entry: Recombinant human BACE-1 (Homo sapiens, UniProt P56817) assay, molecule C[C@@]1(c2cc(NC(=O)COc3ccccc3O)ccc2F)CCSC(N)=N1 [Compound 149] , IC50 = 9250

====

Target: Recombinant human BACE-1 (Homo sapiens, UniProt P56817)
Construct: purchased R&D Systems
Assay: Assay of β-secretase-inhibiting activity
Format: biochemical
Conditions: Recombinant human BACE-1 7.4 nM, substrate peptide 18 nM, pH 5.0, 30° C., 3 hours; Table 139; read-out: IC50
Entries and their log10 IC50
In our notation, the value equals log10 of IC50 in nM.

Answered examples (2):
[[record]]
molecule = "C[C@@]1(c2cc(NC(=O)c3ccc(Br)s3)ccc2F)CCSC(N)=N1"
endpoint_value = 2.18

[[record]]
molecule = "CCCCOc1cnc(C(=O)Nc2cccc(C3(C)CCSC(N)=N3)c2)cn1 (centres unmarked)"
endpoint_value = 2.20


Next up:
# molecule `C[C@@]1(c2cc(NC(=O)CCc3cccc(N)c3)ccc2F)CCSC(N)=N1` ; its log10 IC50 = 3.39

====

Target: Recombinant human BACE-1 (Homo sapiens, UniProt P56817)
Construct: purchased R&D Systems
Experiment: Assay of β-secretase-inhibiting activity
Assay type: biochemical
Settings: Recombinant human BACE-1 7.4 nM, substrate peptide 18 nM, pH 5.0, 30° C., 3 hours; Table 141; read-out: IC50
OUTCOME MEASURE: pIC50
Expect pIC50 as a plain number equal to -log10 of the molar concentration.

# annotated cases, reported pIC50 shown
[[record]]
compound_string = "Cc1cnc(C(=O)Nc2ccc(F)c([C@@]3(C)N=C(N)SCC3(F)F)c2)cn1"
endpoint_value = 6.77

[[record]]
compound_string = "C[C@@]1(c2cc(NC(=O)c3coc(C(F)(F)F)n3)ccc2F)CCSC(N)=N1"
endpoint_value = 8.00

[[record]]
compound_string = "Cc1nc(C(=O)Nc2ccc(F)c([C@@]3(C)N=C(N)SCC3(F)F)c2)co1"
endpoint_value = 7.70


For reference, reported pIC50 for `COc1cnc(C(=O)Nc2ccc(F)c([C@@]3(C)N=C(N)SCC3=O)c2)cn1` stands at 7.40

Noted for `CCCCc1ccc(C(=O)Nc2ccc(F)c([C@@]3(C)N=C(N)SCC3(F)F)c2)nc1` : its pIC50 reads 6.06

====

Biological target: Recombinant human BACE-1 (Homo sapiens, UniProt P56817)
Construct: purchased R&D Systems
Experiment: Assay of β-secretase-inhibiting activity
Assay type: biochemical
Conditions: Recombinant human BACE-1 7.4 nM, substrate peptide 18 nM, pH 5.0, 30° C., 3 hours; time-resolved fluorescence ratio 665/620; read-out: IC50 values (50% inhibitory concentration against the enzymatic activity)
pIC50: −log10 of the molar value.
The following molecules are shown together with reported pIC50 values.

For orientation, consider the following solved cases.
[[record]]
compound_string = "Cc1cnc(C(=O)Nc2cncc([C@]3(C)CCSC(N)=N3)c2)cn1"
system = "Recombinant human BACE-1 (Homo sapiens, UniProt P56817)"
endpoint_value = "≥ 6.00"

[[record]]
compound_string = "C#CCOc1cnc(C(=O)Nc2ccc(F)c([C@]3(C)CC(C)(C)SC(N)=N3)c2)cn1"
system = "Recombinant human BACE-1 (Homo sapiens, UniProt P56817)"
endpoint_value = "≥ 6.00"

[[record]]
compound_string = "C[C@@]1(c2cc(NC(=O)c3cnc(/C=C/CO)cn3)ccc2F)CCSC(N)=N1"
system = "Recombinant human BACE-1 (Homo sapiens, UniProt P56817)"
endpoint_value = "≥ 6.00"

[[record]]
compound_string = "C[C@@]1(c2cc(NC(=O)c3ccc(Cl)cn3)ccn2)CCSC(N)=N1"
system = "Recombinant human BACE-1 (Homo sapiens, UniProt P56817)"
endpoint_value = "≥ 6.00"

[[record]]
compound_string = "C[C@@]1(c2cccc(NC(=O)c3ccc(O)cn3)c2)CCSC(N)=N1"
system = "Recombinant human BACE-1 (Homo sapiens, UniProt P56817)"
endpoint_value = "≥ 6.00"


Short answer for `Cc1noc(C)c1-c1cnc(C(=O)Nc2ccc(F)c([C@]3(C)CCSC(N)=N3)c2)cn1` : pIC50 was ≥ 6.00

For this molecule ( `C[C@@]1(c2cc(NC(=O)c3ccc(OC(F)F)cn3)ccc2F)CCSC(N)=N1` ), measured pIC50 is ≥ 6.00

// `CNCC#CCOc1ccc(C(=O)Nc2ccc(F)c([C@]3(C)CCSC(N)=N3)c2)nc1` : pIC50 value = ≥ 6.00

`CCOc1cnc(C(=O)Nc2ccc(F)c([C@]3(C)CCSC(N)=N3)c2)c(OCC)c1` has a reported pIC50 of ≥ 6.00

GET /value?item= `COc1cc(C(=O)Nc2cccc([C@]3(C)CCSC(N)=N3)c2)n(C)n1` &field=pIC50 returns ≥ 6.00

// recorded pIC50 for `CN(C)CC#CCOc1ccc(C(=O)Nc2ccc(F)c([C@]3(C)CCSC(N)=N3)c2)nc1` : ≥ 6.00

The reported pIC50 of the molecule `COCCOc1cnc(C(=O)Nc2ccc(F)c([C@]3(C)CCSC(N)=N3)c2)cn1` was ≥ 6.00

Just so you know, measured pIC50 for `C[C@@]1(c2cc(NC(=O)c3ccc(O)cn3)ccc2F)CCSC(N)=N1` came out at ≥ 6.00

Value of pIC50 reported for the molecule `Cc1ncsc1C(=O)Nc1ccc(F)c([C@]2(C)CCSC(N)=N2)c1` is ≥ 6.00

The molecule `COc1cnc(C(=O)Nc2ccnc([C@]3(C)CC(C)(C)SC(N)=N3)c2)c(C)c1` showed pIC50 equal to ≥ 6.00

Data point: `COCCOCCOc1cnc(C(=O)Nc2cccc([C@]3(C)CCSC(N)=N3)c2)cn1` ; pIC50 = ≥ 6.00

Summary for this molecule, `C[C@@]1(c2cncc(NC(=O)c3ncc(C(F)(F)F)cc3F)c2)CCSC(N)=N1` : pIC50 is ≥ 6.00

====

Molecular target: Recombinant human BACE-1 (Homo sapiens, UniProt P56817)
Construct: purchased R&D Systems
Test: Assay of β-secretase-inhibiting activity;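 also: substrate is a peptide carrying biotin and europium cryptate, after the enzyme reaction, Streptavidin-XL665 is added and incubated 1 h at 30 °C before fluorescence reading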
Format: biochemical
Details: Recombinant human BACE-1 7.4 nM, substrate peptide 18 nM, pH 5.0, 30° C., 3 hours; Table 140; read-out: IC50
Below, each entry is listed alongside its reported log10 IC50.
Could you please treat all values as log10 of IC50 in nM?

[[record]]
compound = "Cc1nc(C(=O)Nc2ccc(F)c([C@]3(C)CCSC(N)=N3)c2)cs1 [Compound 505]"
endpoint_value = 1.48

[[record]]
compound = "Cc1cc2cc(NC(=O)c3ccc(OCCO)cn3)cc([C@]3(C)CCSC(N)=N3)c2o1 [Compound 464]"
endpoint_value = 2.63

[[record]]
compound = "CC(=O)c1ccc(C(=O)Nc2ccc(F)c([C@]3(C)CCSC(N)=N3)c2)s1 [Compound 530]"
endpoint_value = 1.95

[[record]]
compound = "Cc1cnc(C(=O)Nc2cccc([C@]3(C)CCSC(N)=N3)n2)cn1 [Compound 594]"
endpoint_value = 2.23

[[record]]
compound = "Cc1ncc(C(=O)Nc2ccc(F)c([C@]3(C)CCSC(N)=N3)c2)s1 [Compound 508]"
endpoint_value = 1.60


Quick note, log10 IC50 for C[C@@]1(c2cc(NC(=O)c3nc4cnccc4[nH]3)ccc2F)CCSC(N)=N1 [Compound 484] landed at 2.46

get_value(item= C[C@@]1(c2ccnc(NC(=O)c3ccc(Cl)cn3)c2)CCSC(N)=N1 [Compound 598] , readout=log10 IC50) returns 1.48

compound CC1(C)C[C@@](C)(c2cc(NC(=O)c3coc(Cl)n3)ccc2F)N=C(N)S1 [Compound 645] , log10 IC50 observed: 2.30

The reported log10 IC50 of the compound Cc1cc(C(=O)Nc2ccc(F)c([C@]3(C)CCSC(N)=N3)c2)nn1C [Compound 488] was 2.41

log10 IC50 recorded for this compound, Cc1cnc(C(=O)Nc2ccnc([C@]3(C)CCSC(N)=N3)c2)cn1 [Compound 551] , is 1.30

log10 IC50 measured on Cc1cncc(C(=O)Nc2ccc(F)c([C@]3(C)CCSC(N)=N3)c2)n1 [Compound 585] = 1.78

Measured log10 IC50 of Cc1cc(C)n(-c2cnc(C(=O)Nc3ccc(F)c([C@]4(C)CCSC(N)=N4)c3)cn2)n1 [Compound 579] : 2.15

log10 IC50 reported for this compound C[C@@]1(c2cc(NC(=O)c3ccc(OCC(N)=O)cn3)ccc2F)CCSC(N)=N1 [Compound 559] : 2.62

Noted for COCCOc1cnc(C(=O)Nc2cc([C@]3(C)CCSC(N)=N3)ccn2)cn1 [Compound 591] : its log10 IC50 reads 2.00

So for C[C@@]1(c2cc(NC(=O)c3cn4ccccc4n3)ccc2F)CCSC(N)=N1 [Compound 502] , the logged log10 IC50 turned out to be 1.60

The compound C[C@@]1(c2cc(NC(=O)c3ncc(O)cc3F)ccc2F)CCSC(N)=N1 [Compound 491] showed log10 IC50 equal to 1.95

Just so you know, measured log10 IC50 for Cc1cnc(C(=O)Nc2cccc([C@]3(C)CCSC(N)=N3)c2)cn1 [Compound 563] came out at 1.30

Reported log10 IC50 of Cc1nc(Br)sc1C(=O)Nc1cncc([C@]2(C)CCSC(N)=N2)c1 [Compound 497] : 1.95

log10 IC50 recorded for this compound, Cc1nnsc1C(=O)Nc1ccc(F)c([C@]2(C)CCSC(N)=N2)c1 [Compound 481] , is 1.70

log10 IC50 recorded for this compound, Cc1cnc(C(=O)Nc2cc([C@]3(C)CCSC(N)=N3)c3oc(C)cc3c2)cn1 [Compound 468] , is 1.30

In plain terms, C[C@@]1(c2cncc(NC(=O)c3ccc(Br)s3)c2)CCSC(N)=N1 [Compound 514] has a documented log10 IC50 of 2.38

compound COc1cnc(C(=O)Nc2cccc([C@]3(C)CCSC(N)=N3)n2)cn1 [Compound 589] , log10 IC50 observed: 1.78

# compound C[C@@]1(c2cc(NC(=O)c3cnc(Cl)cn3)ccc2Br)CCSC(N)=N1 [Compound 517] ; its log10 IC50 = 2.11

Reported log10 IC50 ( Cn1cc(-c2cnc(C(=O)Nc3ccc(F)c([C@]4(C)CCSC(N)=N4)c3)cn2)cn1 [Compound 494] ) = 1.48

Entry Cn1nc(Cl)cc1C(=O)Nc1cncc([C@]2(C)CCSC(N)=N2)c1 [Compound 478] , log10 IC50 reported as 1.90

Entry Cc1cnc(C(=O)Nc2cc([C@]3(C)CCSC(N)=N3)ccn2)cn1 [Compound 593] — recorded log10 IC50 = 2.45

Value of log10 IC50 reported for the compound C[C@@]1(c2cc(NC(=O)c3cc4nccnc4s3)ccc2F)CCSC(N)=N1 [Compound 521] is 2.26

The reported value for COc1cc(C(=O)Nc2cncc([C@]3(C)CCSC(N)=N3)c2)n(C)n1 [Compound 473] in terms of log10 IC50 is 2.23

// field: log10 IC50; key: C[C@@]1(c2cc(NC(=O)c3ccc(OCC#CCN)cn3)ccc2F)CCSC(N)=N1 [Compound 566] ; value = 2.26
